assayRemarks: Solubility of the compounds (visual evaluation and A600 of dilutions)
Format: physicochemical
measurementConditions: absorbance at 600 nm, 96-well plate; blank 0.0472; values in parentheses unreliable (precipitate)
Property: A600 measurement (averaged from 2 reps); scope: individual molecules
Write no unit; give the number alone.

Some solved cases for reference:
Cc1c(NC(=O)c2ccc(CN[C@@H]3CCC[C@H]3O)cn2)cccc1-c1cccc(NC(=O)c2ccc(CN(C)CCO)cn2)c1C :: 0.5138
Cc1c(NC(=O)c2ccc(CNCCCO)cn2)cccc1-c1cccc(NC(=O)c2ccc(CN(C)C(CO)CO)cn2)c1C :: 0.04735
COC(=O)[C@H](C)NCc1ccc(C(=O)Nc2cccc(-c3cccc(NC(=O)c4ccc(CN5CCCC5)cn4)c3C)c2C)nc1 :: 0.0627
Cc1c(NC(=O)c2ccc(CN[C@@H](C)CO)cn2)cccc1-c1cccc(NC(=O)c2ccc(CN(C)CCO)cn2)c1C :: 0.4023

Then there is this molecule:
Inquiry: Report A600 measurement (averaged from 2 reps) for Cc1c(NC(=O)c2ccc(CNCCCO)cn2)cccc1-c1cccc(NC(=O)c2ccc(CN[C@@H]3CCC[C@H]3O)cn2)c1C please.
Reply text: 0.0476

====

This section presents compounds with their documented solubility values.
assayRemarks: Solubility of the compounds (visual evaluation and A600 of dilutions)
Assay type: physicochemical
measurementConditions: kinetic from dmso stock; dilutions from DMSO stock, visually evaluated

Example cases with answers are listed next.
Cc1c(NC(=O)c2ccc(CN[C@@H]3CCC[C@H]3O)cn2)cccc1-c1cccc(NC(=O)c2ccc(CN(C)CCO)cn2)c1C :: < 500 µM
Cc1c(NC(=O)c2ccc(CN(C)CCO)cn2)cccc1-c1cccc(NC(=O)c2ccc(CN(CCO)CCO)cn2)c1C :: < 500 µM
Cc1c(NC(=O)c2ccc(CNCCO)cn2)cccc1-c1cccc(NC(=O)c2ccc(CNCCCNS(C)(=O)=O)cn2)c1C.Cl.Cl.Cl.Cl [Compound 17a] :: < 500 µM
Cc1c(NC(=O)c2ccc(CNCCCO)cn2)cccc1-c1cccc(NC(=O)c2ccc(CN[C@@H]3CCC[C@H]3O)cn2)c1C :: > 500 µM
Cc1c(NC(=O)c2ccc(CN[C@@H]3CCC[C@H]3O)cn2)cccc1-c1cccc(NC(=O)c2ccc(CN3CCC(O)CC3)cn2)c1C :: < 500 µM

Inquiry: Given the compound Cc1c(NC(=O)c2ccc(CNCCO)cn2)cccc1-c1cccc(NC(=O)c2ccc(CNCCNS(C)(=O)=O)cn2)c1C , what is its reported solubility?
Reply text: > 500 µM

====

Reported log10 EC50 by item:
assayedSystem: PD-1/PD-L1 (Homo sapiens)
Sequence (Q9NZQ7 19-290): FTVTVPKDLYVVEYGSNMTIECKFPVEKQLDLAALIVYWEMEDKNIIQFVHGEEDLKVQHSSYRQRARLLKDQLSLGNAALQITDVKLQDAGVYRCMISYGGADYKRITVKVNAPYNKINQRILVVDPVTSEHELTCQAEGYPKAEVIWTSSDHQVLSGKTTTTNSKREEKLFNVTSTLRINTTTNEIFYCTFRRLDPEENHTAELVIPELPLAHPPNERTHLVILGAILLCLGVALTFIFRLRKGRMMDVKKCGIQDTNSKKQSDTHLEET
assayRemarks: cell-based
Set-up: host or cells: PD-L1+ aAPC/CHO-K1 cells; PD-1 effector Jurkat cells
measurementConditions: PD-L1+ aAPC/CHO-K1 cells cocultured 6 h with PD-1 effector Jurkat cells; read-out: PD-1/PD-L1 blockade, NFAT reporter bioassay EC50
Method: The PD-1/PD-L1 immune checkpoint bioassay (PD-1/PD-L1 Bioassay, Promega) was conducted according to the manufacturer’s protocol. […] After a 15 min incubation at room temperature, luminescence was measured using a Tecan Spark microplate reader. Data are presented as fold induction of luminescence relative to DMSO-treated cells. EC50 values were calculated using the log(inhibitor) vs response variable slope (four-parameter) analysis model with GraphPad Prism software.
Form field - Quantity: EC50; Unit: nM; Scale: log10

Sample records with log10 EC50:
Cc1c(NC(=O)c2ccc(CNCCO)cn2)cccc1-c1cccc(NC(=O)c2ccc(CNCCCNS(C)(=O)=O)cn2)c1C :: 1.82
Cc1c(NC(=O)c2ccc(CN[C@@H](C)CO)cn2)cccc1-c1cccc(NC(=O)c2ccc(CN3CCC(O)CC3)cn2)c1C :: 2.46
Cc1c(NC(=O)c2ccc(CNCCO)cn2)cccc1-c1cccc(NC(=O)c2ccc(CNCCCNS(C)(=O)=O)cn2)c1C.Cl.Cl.Cl.Cl [Compound 17a] :: 1.88
Cc1c(NC(=O)c2ccc(CNCCCO)cn2)cccc1-c1cccc(NC(=O)c2ccc(CN(CCO)CCO)cn2)c1C :: 2.40
Cc1c(NC(=O)c2ccc(CNCCO)cn2)cccc1-c1cccc(NC(=O)c2ccc(CNCCO)cn2)c1C [Cmpd A, reference compound] :: 1.17

Inquiry: What does the record list as log10 EC50 for Cc1c(NC(=O)c2ccc(CN[C@@H]3CCC[C@H]3O)cn2)cccc1-c1cccc(NC(=O)c2ccc(CN3CCC(O)CC3)cn2)c1C ?
Reply text: 2.74

Inquiry: Requested read-out: log10 EC50. Entry: Cc1c(NC(=O)c2ccc(CNCCCO)cn2)cccc1-c1cccc(NC(=O)c2ccc(CN3CCC(O)CC3)cn2)c1C
Reply text: 2.27

Inquiry: Which measured log10 EC50 value corresponds to Cc1c(NC(=O)c2ccc(CNCCCO)cn2)cccc1-c1cccc(NC(=O)c2ccc(CN(C)C(CO)CO)cn2)c1C ?
Reply text: 2.04

Inquiry: Would you mind telling me what log10 EC50 value was observed for Cc1c(NC(=O)c2ccc(CN[C@@H](C)CO)cn2)cccc1-c1cccc(NC(=O)c2ccc(CN(C)CCO)cn2)c1C.Cl.Cl.Cl ?
Reply text: 1.40

Inquiry: State the recorded log10 EC50 for this entry: Cc1c(NC(=O)c2ccc(CN[C@@H](C)CO)cn2)cccc1-c1cccc(NC(=O)c2ccc(CN(C)CCO)cn2)c1C
Reply text: 1.34

Numbers sourced from paper PMC11181486.
